tested on: MARIMO; experiment: cell viability relative to vehicle control; higher = less cytotoxic; conditions: 10 µM; SRSF2 genotype: SRSF2 P95H/wt;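 note: after 48 h exposure read by CellTiter-Glo luminescence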

COMPOUND: CN1CCN(c2ccc3nc(-c4c(N)c5c(F)cccc5[nH]c4=O)[nH]c3c2)CC1 [Dovitinib (TKI258) Lactate]
ASSAY_TARGET: MARIMO
OUTPUT_UNIT: %
cell viability: 9.85

COMPOUND: CCN1CCN(C(=O)N[C@@H](C(=O)N[C@@H]2C(=O)N3C(C(=O)O)=C(CSc4nnnn4C)CS[C@H]23)c2ccc(O)cc2)C(=O)C1=O
ASSAY_TARGET: MARIMO
OUTPUT_UNIT: %
cell viability: 104

COMPOUND: COc1cc2ncnc(Sc3nnc(C)s3)c2cc1OC
ASSAY_TARGET: MARIMO
OUTPUT_UNIT: %
cell viability: 42

COMPOUND: NC(=O)[C@H](CCCN=C(N)CCl)NC(=O)c1ccccc1
ASSAY_TARGET: MARIMO
OUTPUT_UNIT: %
cell viability: 101

----------
tested on: MOLM14; assay: cell viability relative to vehicle control; higher = less cytotoxic; settings: 10 µM; SRSF2 genotype: SRSF2 P95H/wt
Structures can show the parent of a compound that is named as a salt.
OBSERVED_PROPERTY: cell viability

MOLECULE: Cn1cnc([N+](=O)[O-])c1Sc1ncnc2[nH]cnc12
ASSAY_TARGET: MOLM14
OBSERVED_PROPERTY: cell viability
MEASUREMENT: 85.2%
//
MOLECULE: C/C=C(/C)C(=O)O[C@@H]1[C@H](OC(C)=O)c2c(ccc3ccc(=O)oc23)OC1(C)C
ASSAY_TARGET: MOLM14
OBSERVED_PROPERTY: cell viability
MEASUREMENT: 89%
//
MOLECULE: Nc1c2c(nc3ccccc13)CCCC2 [tacrine hydrochlorid]
ASSAY_TARGET: MOLM14
OBSERVED_PROPERTY: cell viability
MEASUREMENT: 103%
//
MOLECULE: CCS(=O)(=O)CCn1c([N+](=O)[O-])cnc1C
ASSAY_TARGET: MOLM14
OBSERVED_PROPERTY: cell viability
MEASUREMENT: 95.1%
//
MOLECULE: C=CC(=O)Nc1cccc(Oc2nc(Nc3ccc(N4CCN(C)CC4)cc3OC)ncc2Cl)c1
ASSAY_TARGET: MOLM14
OBSERVED_PROPERTY: cell viability
MEASUREMENT: 57.6%
//
MOLECULE: CN[C@@H](C)C(=O)N[C@H]1CN(C(=O)CC(C)C)CC[C@H]2CC[C@@H](C(=O)NC(c3ccccc3)c3ccccc3)N2C1=O
ASSAY_TARGET: MOLM14
OBSERVED_PROPERTY: cell viability
MEASUREMENT: 0.57%
//
MOLECULE: Nc1c(CC(=O)O)cccc1C(=O)c1ccc(Br)cc1 [Bromfenac Sodium]
ASSAY_TARGET: MOLM14
OBSERVED_PROPERTY: cell viability
MEASUREMENT: 102%
//
MOLECULE: CN(C(=O)CNC(=O)/C=C/c1cccc(Cl)c1)C1CCS(=O)(=O)CC1
ASSAY_TARGET: MOLM14
OBSERVED_PROPERTY: cell viability
MEASUREMENT: 105%
//
MOLECULE: O=C1CCCC(=O)C1C(=O)c1ccc(C(F)(F)F)cc1[N+](=O)[O-]
ASSAY_TARGET: MOLM14
OBSERVED_PROPERTY: cell viability
MEASUREMENT: 104%
